- Tested on: "Komatsuna" (einer Varietät chinesischen Kohls)
- EXPERIMENT_DESCRIPTION: Phytotoxicity to "Komatsuna" in the clubroot control test
- Format: in vivo, "Komatsuna" (Varietät: Misugi)
- CONDITION_SUMMARY: Menge des Wirkstoffs 5 kg/ha

{"columns": ["MOLECULE", "Phytotoxizität"],
 "data": [
  ["O=C(NC(OCC(F)(F)F)C(Cl)(Cl)Cl)c1cc(Br)ccc1O (centres unmarked) [Verbindung 8]", "keine"],
  ["CCOC(NC(=O)c1cc(Cl)ccc1O)C(Cl)(Cl)Cl (centres unmarked) [Verbindung 1]", "keine"],
  ["CC(=O)Oc1ccc(Cl)cc1C(=O)NC(OCC(F)(F)F)C(Cl)(Cl)Cl (centres unmarked) [Verbindung 12]", "keine"],
  ["O=C(NC(OCC(F)(F)F)C(Cl)(Cl)Cl)c1cc(Cl)ccc1O (centres unmarked) [Verbindung 4]", "keine"],
  ["C=CCOC(NC(=O)c1cc(Cl)ccc1O)C(Cl)(Cl)Cl (centres unmarked) [Verbindung 2]", "keine"]
]}

###

- Tested on: Rhizopus oryzae
- EXPERIMENT_DESCRIPTION: Control of damping-off of rice seedlings, soil drench
- Format: in vivo
- CONDITION_SUMMARY: Konzentration des Wirkstoffs 0,1 %; 500 ml per box; rice (Kusabue)

{"columns": ["COMPOUND", "VALUE_UNIT", "Bekämpfungs-Index"],
 "data": [
  ["O=C(NC(OCC(F)(F)F)C(Cl)(Cl)Cl)c1cc(Cl)ccc1O (stereo not drawn) [Verbindung 4]", "%", 95],
  ["CC(=O)Oc1ccc(Cl)cc1C(=O)NC(OCC(F)(F)F)C(Cl)(Cl)Cl (stereo not drawn) [Verbindung 12]", "%", 94],
  ["CCOC(NC(=O)c1ccccc1O)C(Cl)(Cl)Cl (stereo not drawn) [A-1, reference compound]", "%", 43],
  ["C=CCOC(NC(=O)c1cc(Cl)ccc1O)C(Cl)(Cl)Cl (stereo not drawn) [Verbindung 2]", "%", 95],
  ["O=C(NC(OCCBr)C(Cl)(Cl)Cl)c1ccccc1O (stereo not drawn) [B-1, reference compound]", "%", 60],
  ["COC(NC(=O)c1cc(Cl)ccc1O)C(Cl)(Cl)Cl (stereo not drawn) [Verbindung 13]", "%", 94]
]}
